Biological target: human prostanoid IP receptor (Homo sapiens, UniProt P43119)
Construct: expressed in transfected cells
Sequence (P43119 whole entry): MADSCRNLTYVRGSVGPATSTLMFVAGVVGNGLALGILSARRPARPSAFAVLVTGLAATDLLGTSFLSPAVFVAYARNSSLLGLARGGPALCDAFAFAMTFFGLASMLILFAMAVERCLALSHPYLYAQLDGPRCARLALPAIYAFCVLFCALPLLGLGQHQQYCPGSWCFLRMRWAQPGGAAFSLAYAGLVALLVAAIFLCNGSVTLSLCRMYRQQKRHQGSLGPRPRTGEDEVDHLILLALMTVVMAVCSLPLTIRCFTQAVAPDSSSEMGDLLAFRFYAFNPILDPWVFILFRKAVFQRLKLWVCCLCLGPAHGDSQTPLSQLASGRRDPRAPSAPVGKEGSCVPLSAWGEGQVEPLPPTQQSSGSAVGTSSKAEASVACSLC
Test: FLIPR Ca2+ signaling antagonist assay, IP receptor stable cell line
Format: cell-based
Details: HEK-293 EBNA stable cell line; standard agonist Cicaprost; NA = inactive (no antagonism or Kb 10,000 nM); PAg, Ag not defined
Method: The above compounds were tested for PG antagonist activity as follows using human recombinant prostanoid receptor (DP1, EP1-4, FP, IP and TP) stable cell lines: […] Ca^2+ signaling studies were performed using a FLIPR TETRA system (Molecular Devices, Sunnyvale, Calif., USA) in the 384-format. […] Cells were excited with LED (light emitting diode) excitation at 470-495 nm and emission was measured through an emission filter at 515-575 nm. Assay plates were read for 3.5 minutes using the FLIPR^TETRA. […]
Record form. Attribute: Kb. Fill in for each entry.
// note: answer is a bare numeric in nM

Just so you know, measured Kb for CCC(C)CCOc1ccc(Br)cc1Cn1nc(CCC(=O)O)cc1C (stereo not shown) came out at 3500

Memo: CCC(CC)COc1ccc(C(F)(F)F)cc1Cn1nc(CCC(=O)O)cc1C , reported Kb: 2100

# Kb of CCCCCCCOc1ccc(Br)cc1Cn1nc(CCC(=O)O)cc1C = 2000

The measured Kb associated with Cc1cc(CCC(=O)O)nn1Cc1cc(Cl)ccc1OCC(C)(C)C reads 3700

In plain terms, Cc1cc(CC(C)C(=O)O)nn1Cc1cc(Cl)ccc1OCC1CCCC1 (racemic) has a documented Kb of 2000

CCCC(C)COc1ccc(Br)cc1Cn1nc(CCC(=O)O)cc1C (stereo not shown) has a reported Kb of 1700

Looking up CCC(C)COc1ccc(Br)cc1Cn1nc(CCC(=O)O)cc1C (stereo not shown) , I found its Kb recorded as 4200

For this compound ( Cc1cc(CC(C)(C)C(=O)O)nn1Cc1cc(Br)ccc1OCC1CCCC1 ), measured Kb is 3100

Memo: Cc1cc(CCC(=O)O)nn1Cc1cc(Cl)ccc1OCCCC(C)C , reported Kb: 720

Summary for this compound, Cc1cc(CCC(=O)NS(=O)(=O)C(F)(F)F)nn1Cc1cc(Br)ccc1OCC1CCCC1 : Kb is 3100

====

Target: human prostanoid EP1 receptor (Homo sapiens)
Construct: expressed in transfected cells
Sequence (P34995 whole entry): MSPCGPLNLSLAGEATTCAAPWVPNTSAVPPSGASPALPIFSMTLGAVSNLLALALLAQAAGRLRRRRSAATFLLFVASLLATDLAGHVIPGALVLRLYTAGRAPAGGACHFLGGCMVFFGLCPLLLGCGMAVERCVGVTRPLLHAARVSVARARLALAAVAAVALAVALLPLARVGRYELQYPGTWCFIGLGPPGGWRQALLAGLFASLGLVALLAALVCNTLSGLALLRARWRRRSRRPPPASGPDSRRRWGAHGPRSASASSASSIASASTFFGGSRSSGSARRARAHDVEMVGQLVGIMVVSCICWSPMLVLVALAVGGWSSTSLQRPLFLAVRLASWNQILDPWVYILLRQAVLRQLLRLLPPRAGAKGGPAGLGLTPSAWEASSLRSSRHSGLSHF
Assay: FLIPR Ca2+ signaling antagonist assay, EP1 receptor stable cell line
Type: cell-based
Settings: HEK-293 EBNA stable cell line; standard agonist PGE2; NA = inactive (no antagonism or Kb 10,000 nM); PAg, Ag not defined
Readout kind: EP1 (FLIPR) Kb

Cc1cc(CCC(=O)NS(=O)(=O)C(F)(F)F)nn1Cc1cc(Cl)ccc1OCc1ccc(Cl)cc1Cl [Example 27]: PAg
Cc1cc(CCC(=O)O)nn1Cc1cc(Cl)ccc1OCCC1CCCC1 [Example 39]: PAg
Cc1cc(CCC(=O)O)nn1Cc1cc(Cl)ccc1OCC1CCCCC1 [Example 34]: Ag
Cc1cc(CCC(=O)O)nn1Cc1cc(Cl)ccc1OCCCCC(C)C [Example 36]: Ag

Please examine the following record next.
Entry CCCCCCCOc1ccc(Br)cc1Cn1nc(CCC(=O)O)cc1C [Example 15] , EP1 (FLIPR) Kb reported as PAg

====

Biological target: human prostanoid TP receptor (Homo sapiens, UniProt P21731)
Construct: expressed in transfected cells
Sequence (P21731 1-343): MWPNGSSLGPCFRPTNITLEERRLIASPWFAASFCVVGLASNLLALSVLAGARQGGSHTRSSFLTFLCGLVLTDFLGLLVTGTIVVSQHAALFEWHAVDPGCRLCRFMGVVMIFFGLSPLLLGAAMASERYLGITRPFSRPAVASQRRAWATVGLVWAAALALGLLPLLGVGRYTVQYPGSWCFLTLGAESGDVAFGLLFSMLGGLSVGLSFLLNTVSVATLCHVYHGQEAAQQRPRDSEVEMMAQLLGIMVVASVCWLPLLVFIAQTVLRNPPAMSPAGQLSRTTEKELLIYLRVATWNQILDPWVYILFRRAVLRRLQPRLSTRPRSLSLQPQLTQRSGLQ
Experiment: FLIPR Ca2+ signaling antagonist assay, TP receptor stable cell line
Type: cell-based
Conditions: HEK-293 EBNA stable cell line; standard agonist U-46619; NA = inactive (no antagonism or Kb 10,000 nM); PAg, Ag not defined
Description: The above compounds were tested for PG antagonist activity as follows using human recombinant prostanoid receptor (DP1, EP1-4, FP, IP and TP) stable cell lines: […] Ca^2+ signaling studies were performed using a FLIPR TETRA system (Molecular Devices, Sunnyvale, Calif., USA) in the 384-format. […] Cells were excited with LED (light emitting diode) excitation at 470-495 nm and emission was measured through an emission filter at 515-575 nm. Assay plates were read for 3.5 minutes using the FLIPR^TETRA. […]
Readout kind: TP (FLIPR) Kb

Examples with their reported TP (FLIPR) Kb follow.
Cc1cc(CCC(=O)O)nn1Cc1cc(Cl)ccc1OCCCCC(C)C: Ag
Cc1cc(CCC(=O)O)nn1Cc1cc(Cl)ccc1OCc1ccc(Cl)cc1Cl: PAg
Cc1cc(CCC(=O)O)nn1Cc1cc(Cl)ccc1OC(CC(C)C)CC(C)C: Ag
Cc1cc(CCC(=O)O)nn1Cc1cc(Cl)ccc1OCCC1CCCC1: PAg

In plain terms, Cc1cc(CCC(=O)O)nn1Cc1cc(OC(F)(F)F)ccc1OCc1ccc(Cl)cc1 has a documented TP (FLIPR) Kb of Ag

Origin of the recorded values: patent US9394284B2
